test system: SMMC-7721 (hepatoma cell); assay: In vitro anti-tumor cellular activity (MTT), SMMC-7721; assay type: cell-based, human; settings: Homo sapiens, SMMC-7721, 72 h, read-out: SMMC-7721 IC50
The following compounds are shown together with reported log10 IC50 values.
# values: log10(IC50), units µg/mL

The following compounds have reported results that may help.
compound	log10 IC50
COc1cc2c(Oc3ccc(NC(=O)c4nn(-c5ccc(Cl)cc5Cl)c5ccccc5c4=O)cc3F)ccnc2cc1OCCCN1CCC(C)CC1 [Example 28]	0.11
COc1cc2c(Oc3ccc(NC(=O)c4nn(-c5ccc(Cl)cc5Cl)c5ccccc5c4=O)cc3F)ccnc2cc1OCCCN1CCCCC1 [Example 27]	-0.05
COc1cc2c(Oc3ccc(NC(=O)c4nn(-c5ccccc5Br)c5ccccc5c4=O)cc3F)ccnc2cc1OCCCN1CCN(C)CC1 [Example 35]	0.18

Okay, now this compound:
**Q:** Reported log10 IC50 for COc1cc2c(Oc3ccc(NC(=O)c4nn(-c5c(Cl)cccc5Cl)c5ccccc5c4=O)cc3F)ccnc2cc1OCCCN1CCN(C)CC1 [Example 32] : what is it?
**A:** -0.18

###

target: c-Met (His-tagged recombinant human Met (Amino acids 974-ends)) (Homo sapiens, UniProt P08581); construct: His-tagged recombinant human Met (Amino acids 974-ends); His; test: c-Met kinase assay (ELISA); conditions: 50 pM c-Met, 5 μM ATP, 20 min
Sequence (P08581 974-1390 limits assumed): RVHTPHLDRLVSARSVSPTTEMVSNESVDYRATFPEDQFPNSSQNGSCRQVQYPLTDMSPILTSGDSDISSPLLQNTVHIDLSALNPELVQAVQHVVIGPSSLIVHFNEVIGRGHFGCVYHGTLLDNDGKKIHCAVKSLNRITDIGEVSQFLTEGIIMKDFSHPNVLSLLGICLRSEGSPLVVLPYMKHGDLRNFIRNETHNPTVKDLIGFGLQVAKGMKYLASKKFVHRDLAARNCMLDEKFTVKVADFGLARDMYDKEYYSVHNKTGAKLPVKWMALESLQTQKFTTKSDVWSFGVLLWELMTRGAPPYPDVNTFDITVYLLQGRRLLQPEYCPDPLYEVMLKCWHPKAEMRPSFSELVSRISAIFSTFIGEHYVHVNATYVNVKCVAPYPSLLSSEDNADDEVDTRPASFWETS
The following molecules are shown together with reported pIC50 values.
Entry type: numeric. Quantity: pIC50, the -log10 of concentration in molar units.

smiles.notation	pIC50
COc1cc2c(Oc3ccc(NC(=O)c4cn(-c5ccccc5Cl)c5ccccc5c4=O)cc3F)ccnc2cc1OCCCN1CCC(C)CC1	6.01
COc1cc2c(Oc3ccc(NC(=O)c4nn(-c5ccccc5OC(F)(F)F)c5ccccc5c4=O)cc3F)ccnc2cc1OCCCN1CCCCC1	5.84

Okay, now this molecule:
**Q:** Reported pIC50 for COc1cc2c(Oc3ccc(NC(=O)c4nn(-c5ccc(F)c(F)c5)c5ccccc5c4=O)cc3F)ccnc2cc1OCCCN1CCCCC1 : what is it?
**A:** 7.37

###

system: SMMC-7721 (hepatoma cell); experiment: In vitro anti-tumor cellular activity (MTT), SMMC-7721; assay type: cell-based, human; details: Homo sapiens, SMMC-7721, 72 h, read-out: SMMC-7721 IC50
Where a name gives a salt, the structure may show the parent alone.
The following molecules are shown together with reported IC50 values.
Report as a plain number; the unit µg/mL is understood.

molecule	system	display.unit	assay.value
COc1cc2c(Oc3ccc(NC(=O)c4nn(-c5ccc(Br)cc5)c5ccccc5c4=O)cc3F)ccnc2cc1OCCCN1CCOCC1	SMMC-7721 (hepatoma cell)	µg/mL	2.1
COc1cc2c(Oc3ccc(NC(=O)c4nn(-c5ccc(Cl)cc5)c5ccccc5c4=O)cc3F)ccnc2cc1OCCCN1CCCCC1	SMMC-7721 (hepatoma cell)	µg/mL	1
COc1cc2c(Oc3ccc(NC(=O)c4nn(-c5ccc(F)cc5Br)c5ccccc5c4=O)cc3F)ccnc2cc1OCCCN1CCCC1	SMMC-7721 (hepatoma cell)	µg/mL	2.1
COc1cc2c(Oc3ccc(NC(=O)c4nn(-c5cccc(F)c5)c5ccccc5c4=O)cc3F)ccnc2cc1OCCCN1CCCCC1	SMMC-7721 (hepatoma cell)	µg/mL	0.65
COc1cc2c(Oc3ccc(NC(=O)c4nn(-c5cccc(C(F)(F)F)c5)c5ccccc5c4=O)cc3F)ccnc2cc1OCCCN1CCCCC1	SMMC-7721 (hepatoma cell)	µg/mL	1.3
COc1cc2c(Oc3ccc(NC(=O)c4nn(-c5c(Cl)cccc5Cl)c5ccccc5c4=O)cc3F)ccnc2cc1OCCCN1CCCCC1	SMMC-7721 (hepatoma cell)	µg/mL	1.2
COc1cc2c(Oc3ccc(NC(=O)c4nn(-c5c(Cl)cccc5Cl)c5ccccc5c4=O)cc3F)ccnc2cc1OCCCN1CCC(C)CC1	SMMC-7721 (hepatoma cell)	µg/mL	0.1
COc1cc2c(Oc3ccc(NC(=O)c4nn(-c5ccc(Cl)cc5Cl)c5ccccc5c4=O)cc3F)cnnc2cc1OCCCN1CCCC1	SMMC-7721 (hepatoma cell)	µg/mL	1.8

Okay, now this molecule:
**Q:** Reported IC50 for COc1cc2c(Oc3ccc(NC(=O)c4nn(-c5ccccc5C(F)(F)F)c5ccccc5c4=O)cc3F)ccnc2cc1OCCCN1CCOCC1 [Example 4, dihydrochloride] : what is it?
**A:** 0.9
